molecular target: PDEδ (Homo sapiens); experiment: Fluorescence polarization competition binding assay (displacement titration of labeled Atorvastatin-probe); details: fluorescence polarization assay, displacement of fluorescent-tagged Atorvastatin analog from PDEδ; read-out: KD
pKd: −log10 of the molar value.
Would you kindly list pKd for each of these compounds?

Reported PDEδ (Homo sapiens) pKd for item Cc1c2cnn(-c3ccccc3)c(=O)c2c(C)n1CCCC(=O)NC1CCCC1 was 7.00 to 7.52

Reported PDEδ (Homo sapiens) pKd for item Cc1c2cnn(-c3ccccc3)c(=O)c2c(C)n1CCCC(=O)NCc1cccs1 was 6.00 to 7.00

Reported PDEδ (Homo sapiens) pKd for item Cc1c2cnn(-c3ccccc3)c(=O)c2c(C)n1CCCc1nnc(-c2ccccc2)o1 was 6.00 to 7.00

Reported PDEδ (Homo sapiens) pKd for item Cc1c2cnn(-c3ccccc3)c(=O)c2c(C)n1CCCc1nnc(-c2ccc(F)cc2)o1 was 6.00 to 7.00

Reported PDEδ (Homo sapiens) pKd for item Cc1ccc(-n2nc3c(=O)n(CCCC(=O)NCCc4ccc(Cl)cc4)nc(C)c3c2C)cc1 was > 7.52
